# targetUnderTest: EGFR WT (Ba/F3 cells) (Homo sapiens, UniProt P00533)
# Sequence (P00533 25-1210): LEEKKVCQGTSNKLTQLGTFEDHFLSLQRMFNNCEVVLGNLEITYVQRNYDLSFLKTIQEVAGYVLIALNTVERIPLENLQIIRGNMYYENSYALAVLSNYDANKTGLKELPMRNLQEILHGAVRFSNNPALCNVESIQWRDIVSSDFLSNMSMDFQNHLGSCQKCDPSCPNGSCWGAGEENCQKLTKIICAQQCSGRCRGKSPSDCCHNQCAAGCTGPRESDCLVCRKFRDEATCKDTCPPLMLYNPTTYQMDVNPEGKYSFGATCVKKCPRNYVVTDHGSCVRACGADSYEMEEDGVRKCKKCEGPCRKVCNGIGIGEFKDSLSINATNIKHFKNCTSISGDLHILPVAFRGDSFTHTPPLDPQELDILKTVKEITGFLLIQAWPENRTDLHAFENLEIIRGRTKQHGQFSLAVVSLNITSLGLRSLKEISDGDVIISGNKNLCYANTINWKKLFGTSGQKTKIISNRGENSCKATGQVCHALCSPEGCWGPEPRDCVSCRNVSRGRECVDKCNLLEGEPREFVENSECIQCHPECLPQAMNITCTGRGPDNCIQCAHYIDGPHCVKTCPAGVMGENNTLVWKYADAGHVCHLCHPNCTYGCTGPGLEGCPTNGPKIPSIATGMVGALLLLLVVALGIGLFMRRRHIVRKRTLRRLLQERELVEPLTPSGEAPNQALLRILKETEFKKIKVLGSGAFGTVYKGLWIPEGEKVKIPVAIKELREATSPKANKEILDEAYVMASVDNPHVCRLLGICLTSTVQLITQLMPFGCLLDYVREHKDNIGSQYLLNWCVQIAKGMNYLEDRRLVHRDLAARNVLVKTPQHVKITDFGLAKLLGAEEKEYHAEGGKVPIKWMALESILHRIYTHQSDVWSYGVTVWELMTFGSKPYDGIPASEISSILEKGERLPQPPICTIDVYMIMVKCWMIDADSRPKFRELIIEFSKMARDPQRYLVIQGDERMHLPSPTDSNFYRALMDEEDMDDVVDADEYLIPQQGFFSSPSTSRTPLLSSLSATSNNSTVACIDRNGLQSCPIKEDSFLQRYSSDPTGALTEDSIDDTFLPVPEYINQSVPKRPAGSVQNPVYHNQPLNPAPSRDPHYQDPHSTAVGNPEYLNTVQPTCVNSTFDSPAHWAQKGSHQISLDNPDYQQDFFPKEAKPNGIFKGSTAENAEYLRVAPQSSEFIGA
# procedureDetails: Inhibitor activity on EGFR-dependent cell growth (CellTiter-Glo, 72 h), Ba/F3 EGFR WT
# reportedConditions: read-out: BaF3 WT IC50
pIC50: −log10 of the molar value.
metric: pIC50

**Query** Please look up its pIC50: COc1c(F)cccc1Nc1c(-c2ccncc2F)[nH]c2c1C(=O)NC[C@@H]2CC1COC1 [469b]
**Result** < 6.00

**Query** // repeat for `Nc1nccc(-c2[nH]c3c(c2Nc2ccccc2)C(=O)NCC3)n1` and report
**Result** 6.00 to 7.00

**Query** // repeat for CC[C@H]1CNC(=O)c2c1[nH]c(-c1ccnc(N)n1)c2Nc1cccc(Cl)c1OC [189b] and report
**Result** 6.00 to 7.00

**Query** // repeat for COCC[C@H]1CNC(=O)c2c(Nc3cccc(Cl)c3OC)c(-c3ccncn3)n(C)c21 (single isomer, unassigned) and report
**Result** < 6.00

**Query** // repeat for `COc1c(Cl)cccc1Nc1c(-c2ccnc(NCCF)n2)[nH]c2c1C(=O)NCC2` and report
**Result** < 6.00

**Query** // repeat for COc1ncc2nccc(-c3[nH]c4c(c3Nc3cccc(F)c3OC)C(=O)NC(C(F)(F)F)C4)c2n1 (stereo not shown) and report
**Result** 6.00 to 7.00

**Query** // repeat for COc1c(F)cccc1Nc1c(-c2ccncc2F)[nH]c2c1C(=O)NC[C@H]2CC1COCCO1 (stereo in doubt) and report
**Result** 6.00 to 7.00

**Query** // repeat for `COc1c(Cl)cccc1Nc1c(-c2ccncc2F)[nH]c2c1C(=O)NC[C@@]21CCN(C(C)=O)C1` and report
**Result** < 6.00

**Query** // repeat for `COc1c(F)cccc1Nc1c(-c2ccnc3ccoc23)[nH]c2c1C(=O)NCC2` and report
**Result** 6.00 to 7.00

**Query** // repeat for `COc1c(Nc2c(-c3ccnc(N)n3)[nH]c3c2C(=O)NCC3)ccc(F)c1F` and report
**Result** < 6.00

**Query** // repeat for `COc1c(Cl)cccc1Nc1c(-c2ccnc3cnc(OC4COC4)nc23)[nH]c2c1C(=O)NCC2` and report
**Result** 6.00 to 7.00

**Query** // repeat for `COc1c(Cl)cccc1Nc1c(-c2ccnc(NCCN(C)C)n2)[nH]c2c1C(=O)NCC2` and report
**Result** < 6.00

**Query** // repeat for `COc1ncc2nccc(-c3[nH]c4c(c3Nc3cccc(Cl)c3OC)C(=O)N[C@@H](C(F)(F)F)C4)c2n1` and report
**Result** 6.00 to 7.00

**Query** // repeat for `COc1c(Cl)cccc1Nc1c(-c2ccncn2)[nH]c2c1C(=O)NCC2` and report
**Result** < 6.00

**Query** // repeat for `COc1c(Cl)cccc1Nc1c(-c2ccnc(Nc3cnnn3C)n2)[nH]c2c1C(=O)NCC2` and report
**Result** 6.00 to 7.00

**Query** // repeat for `CC#Cc1cccc(Nc2c(-c3ccnc(N)n3)[nH]c3c2C(=O)NCC3)c1OC` and report
**Result** < 6.00
